Biological target: αENACa (Rattus norvegicus, UniProt P37089)
Sequence (P37089 with tags, fused parts or gaps limits assumed): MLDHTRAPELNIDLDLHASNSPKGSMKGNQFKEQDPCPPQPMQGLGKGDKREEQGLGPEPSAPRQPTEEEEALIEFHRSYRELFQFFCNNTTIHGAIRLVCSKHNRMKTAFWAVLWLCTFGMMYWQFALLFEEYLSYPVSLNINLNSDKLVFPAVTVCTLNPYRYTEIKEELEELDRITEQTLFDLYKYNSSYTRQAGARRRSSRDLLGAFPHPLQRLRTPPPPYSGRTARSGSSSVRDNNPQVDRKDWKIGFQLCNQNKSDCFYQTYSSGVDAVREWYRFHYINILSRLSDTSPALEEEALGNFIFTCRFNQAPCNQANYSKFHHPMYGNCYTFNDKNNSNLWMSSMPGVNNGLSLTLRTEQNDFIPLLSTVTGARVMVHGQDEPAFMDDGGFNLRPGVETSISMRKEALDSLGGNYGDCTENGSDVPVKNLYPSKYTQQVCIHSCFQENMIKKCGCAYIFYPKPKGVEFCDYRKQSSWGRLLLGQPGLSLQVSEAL
parameter_measured: Kd (nM)

>  <compound>
NC(=Nc1ccccc1)NC(=O)c1nc(Cl)c(N)nc1N [[^3 H]phenamil, phenamil]

>  <parameter_measured>
Kd

>  <units_label>
nM

>  <numeric_value>
260

$$$$

---

Biological target: αENAC (Rattus norvegicus, UniProt P37089)
Construct: alpha subunit transfected alone
Sequence (P37089 whole entry): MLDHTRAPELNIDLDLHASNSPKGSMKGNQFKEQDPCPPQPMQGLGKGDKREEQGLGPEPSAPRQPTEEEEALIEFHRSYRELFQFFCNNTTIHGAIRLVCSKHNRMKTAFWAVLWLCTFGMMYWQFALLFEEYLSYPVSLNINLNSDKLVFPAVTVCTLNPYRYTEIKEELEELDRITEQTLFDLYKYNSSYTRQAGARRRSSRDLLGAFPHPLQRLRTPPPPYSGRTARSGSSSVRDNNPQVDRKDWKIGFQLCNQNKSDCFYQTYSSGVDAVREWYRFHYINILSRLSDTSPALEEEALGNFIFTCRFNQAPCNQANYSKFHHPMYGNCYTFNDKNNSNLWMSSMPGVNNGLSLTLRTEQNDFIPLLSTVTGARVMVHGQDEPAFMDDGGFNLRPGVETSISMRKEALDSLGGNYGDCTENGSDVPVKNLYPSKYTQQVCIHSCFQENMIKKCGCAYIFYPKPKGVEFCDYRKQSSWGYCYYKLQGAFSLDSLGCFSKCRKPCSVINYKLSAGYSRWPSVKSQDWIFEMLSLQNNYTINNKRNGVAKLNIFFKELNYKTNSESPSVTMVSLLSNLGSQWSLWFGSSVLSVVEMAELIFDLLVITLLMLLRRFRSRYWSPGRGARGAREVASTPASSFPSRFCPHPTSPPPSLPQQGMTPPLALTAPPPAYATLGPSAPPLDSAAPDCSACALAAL
Experiment: [3H]phenamil binding to membranes from HEK-293 cells transfected with native αENAC
Conditions: saturation analysis, membranes of HEK-293 cells transfected with αENAC, 4° C., 90 minutes
pKd: −log10 of the molar value.

>  <molecule>
NC(=Nc1ccccc1)NC(=O)c1nc(Cl)c(N)nc1N [[^3 H]phenamil, phenamil]

>  <assayed_target>
αENAC (Rattus norvegicus, UniProt P37089)

>  <pKd>
6.57

$$$$
